- Target or system: Adenosine deaminase (Bos taurus)
- Sequence (P56658 whole entry): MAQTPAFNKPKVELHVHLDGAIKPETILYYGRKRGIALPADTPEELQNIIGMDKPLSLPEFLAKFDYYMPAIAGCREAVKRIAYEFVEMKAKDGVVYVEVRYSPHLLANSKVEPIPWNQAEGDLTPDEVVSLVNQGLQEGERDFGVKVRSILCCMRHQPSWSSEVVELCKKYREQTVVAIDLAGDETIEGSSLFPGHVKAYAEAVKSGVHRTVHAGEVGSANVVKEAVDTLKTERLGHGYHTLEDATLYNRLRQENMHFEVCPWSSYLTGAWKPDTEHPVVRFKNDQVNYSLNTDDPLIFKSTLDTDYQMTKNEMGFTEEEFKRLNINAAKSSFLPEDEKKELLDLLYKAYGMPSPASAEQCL
- Assay remarks: Inhibition of calf intestinal adenosine deaminase
pKi: −log10 of the molar value.
Decide by pKi: equal to or exceeding 6 means y, less means n.

Worked set:
compound="CCCCCCC(C(C)O)n1cnc(C(N)=O)c1 (stereo not drawn)" target_or_system="Adenosine deaminase (Bos taurus)" class_assignment=y
compound="CCCCCCC(C(C)O)n1cnc(C(=N)S)c1 (stereo not drawn)" target_or_system="Adenosine deaminase (Bos taurus)" class_assignment=y
compound="CCCCCCC(C(C)O)n1cnc(C(N)=O)c1Cl (stereo not drawn)" target_or_system="Adenosine deaminase (Bos taurus)" class_assignment=y

Quick check: does CCCCCCC(C(C)O)n1cnc(C(=O)NC2CCCC2)c1 (stereo not drawn) have pKi greater than or equal to 6?
n

Exam item: decide whether the reported pKi for CCCCCCC(C(C)O)n1cnc(CN)c1 (stereo not drawn) is at least 6.
n

Can CCCCCCC(C(C)O)n1cnc(C(=O)NCc2ccccc2)c1 (stereo not drawn) be said to have pKi at or above 6?
n
